Test system: BT-20
experiment summary: Growth inhibition (sulforhodamine B assay), single agents and combination
Assay type: cell-based, human
run conditions: Homo sapiens; BT-20; 72 h; read-out: 50% Inhibitory Concentrations (IC50) at 72 h
readout kind: IC50 (µM)
Give your result in µM as a bare value.

Lab book: IC50 of CC1=C(/C=C/C(C)=C/C=C/C(C)=C/C(=O)Nc2ccc(O)cc2)C(C)(C)CCC1 [4-HPR, N-(4-hydroxyphenyl)retinamide, reference compound] noted as 7

====

Test system: OAW42
experiment summary: Growth inhibition (sulforhodamine B assay)
Assay type: cell-based
run conditions: Homo sapiens, OAW-42, 72 h, read-out: 50% Inhibitory Concentrations (IC50) at 72 h
Protocol: The following human ovarian carcinoma cell lines were tested: A2780 was obtained from Dr. R. F. Ozols (National Cancer Institute, Bethesda, Md., USA); IGROV-1 was obtained from Dr. J. Benard (Villejuif, France); OVCA432 was obtained from Dr. R. C. Knapp (Boston, Mass., USA); OAW42 and SKOV-3 were purchased from ATCC (Rockville, Md., USA). […]
readout kind: IC50
# output: number + unit

Lab book: IC50 of CC1=C(/C=C/C(C)=C/C=C/C(C)=C/C(=O)Nc2ccc(O)cc2)C(C)(C)CCC1=O [4-oxo-4-HPR, 4-oxo-N-(4-hydroxyphenyl)retinamide] noted as 3000 nM

====

Tested on: GI-LI-N
experiment summary: Growth inhibition (sulforhodamine B assay)
Type: cell-based, human
run conditions: Homo sapiens; GI-LI-N; 72 h; read-out: 50% Inhibitory Concentrations (IC50) at 72 h
readout kind: IC50 (nM)
Give your result in nM as a bare value.

Lab book: IC50 of CC1=C(/C=C/C(C)=C/C=C/C(C)=C/C(=O)Nc2ccc(O)cc2)C(C)(C)CCC1 [4-HPR, N-(4-hydroxyphenyl)retinamide, reference compound] noted as 700

====

Test system: T-47D
experiment summary: Growth inhibition (sulforhodamine B assay), single agents and combination
Type: cell-based, human
run conditions: Homo sapiens, T47D; T-47D; 72 h; read-out: 50% Inhibitory Concentrations (IC50) at 72 h
readout kind: IC50 (µM)
Give your result in µM as a bare value.

Lab book: IC50 of CC1=C(/C=C/C(C)=C/C=C/C(C)=C/C(=O)Nc2ccc(O)cc2)C(C)(C)CCC1 [4-HPR, N-(4-hydroxyphenyl)retinamide, reference compound] noted as 4

====

System: OAW42
experiment summary: Growth inhibition (sulforhodamine B assay)
Type: cell-based
run conditions: Homo sapiens, OAW-42; OAW42; 72 h; read-out: 50% Inhibitory Concentrations (IC50) at 72 h
readout kind: IC50 (µM)
Give your result in µM as a bare value.

Lab book: IC50 of CC1=C(/C=C/C(C)=C/C=C/C(C)=C/C(=O)Nc2ccc(O)cc2)C(C)(C)CCC1 [4-HPR, N-(4-hydroxyphenyl)retinamide, reference compound] noted as 10

====

Tested on: BT-20
experiment summary: Growth inhibition (sulforhodamine B assay), single agents and combination
Assay type: cell-based, human
run conditions: Homo sapiens, BT-20, 72 h, read-out: 50% Inhibitory Concentrations (IC50) at 72 h
readout kind: IC50 (µM)
Give your result in µM as a bare value.

Lab book: IC50 of CC1=C(/C=C/C(C)=C/C=C/C(C)=C/C(=O)Nc2ccc(O)cc2)C(C)(C)CCC1=O [4-oxo-4-HPR, 4-oxo-N-(4-hydroxyphenyl)retinamide] noted as 2

====

Test system: OVCA432
experiment summary: Growth inhibition (sulforhodamine B assay), single agents and combination
Assay type: cell-based, human
run conditions: Homo sapiens, OVCA432, 72 h, read-out: 50% Inhibitory Concentrations (IC50) at 72 h
readout kind: IC50

Case CC1=C(/C=C/C(C)=C/C=C/C(C)=C/C(=O)Nc2ccc(O)cc2)C(C)(C)CCC1=O [4-oxo-4-HPR, 4-oxo-N-(4-hydroxyphenyl)retinamide] , OVCA432, IC50 recorded as 2500 nM

====

System: A2780
experiment summary: Growth inhibition (sulforhodamine B assay), single agents and combination
Format: cell-based
run conditions: Homo sapiens, A2780, 72 h, read-out: 50% Inhibitory Concentrations (IC50) at 72 h
readout kind: pIC50
Worth noting: pIC50 values are minus log10 of concentrations stated in mol/L.

Case CC1=C(/C=C/C(C)=C/C=C/C(C)=C/C(=O)Nc2ccc(O)cc2)C(C)(C)CCC1=O [4-oxo-4-HPR, 4-oxo-N-(4-hydroxyphenyl)retinamide] , A2780, pIC50 recorded as 6.22

====

System: SKOV-3
experiment summary: Growth inhibition (sulforhodamine B assay)
Format: cell-based
run conditions: Homo sapiens, SK-OV-3; SKOV-3; 72 h; read-out: 50% Inhibitory Concentrations (IC50) at 72 h
readout kind: pIC50
Worth noting: pIC50 values are minus log10 of concentrations stated in mol/L.

Lab book: pIC50 of CC1=C(/C=C/C(C)=C/C=C/C(C)=C/C(=O)Nc2ccc(O)cc2)C(C)(C)CCC1 [4-HPR, N-(4-hydroxyphenyl)retinamide, reference compound] noted as 5.10
